# Tested on: SF-268 CNS
# measurement_notes: NCI tumour cell line growth inhibition, 48 h
Listing of entries alongside the reported TGI.
quantity_kind: TGI

molecule	quantity_kind	val
C=CCC1(CN(C)C)CC/C(=C\c2ccc3c(c2)OCO3)C1=O (centres undefined)	TGI	> 100 µM
COc1cc2c(cc1OCC(=O)Nc1ccc(Cl)cc1C(=O)c1ccccc1Cl)N=CC1CCCN1C2=O (centres undefined)	TGI	33 µM
CCN1CCN(C(=O)[C@]23CC[C@@H](C)[C@H](C)[C@@H]2C2=CC[C@@H]4[C@@]5(C)CCC(=O)C(C)(C)[C@@H]5CC[C@@]4(C)[C@]2(C)CC3)CC1	TGI	6.49 µM
OCc1ccc2c(c1)CC1(Cc3ccccc3C1)C2	TGI	40.9 µM
N#Cc1ccc(-c2ccc(Cl)cc2)n(C2OC(CO)C(O)C(O)C2O)c1=S (centres undefined)	TGI	> 100 µM
N#C/C(=C\c1ccc[nH]1)c1cc(-c2ccc(Cl)cc2)nn1-c1ccccc1	TGI	18.3 µM
CCCN=C1NC(C)=CSC(Nc2ccccc2)=C1C#N	TGI	> 100 µM
Cc1ccc2sc3c(NCCCN)nc4ccccc4c3c(=O)c2c1	TGI	3.45 µM
CC(=O)/C=C(/C)[O-].CC(=O)/C=C(/C)[O-].CC(=O)[CH-]C(C)=O.CC(=O)[CH-]C(C)=O.[Zr+4]	TGI	> 100 µM

----------
# System: COLO 205 colon
# measurement_notes: NCI tumour cell line growth inhibition, 48 h; in the data active = GI50 below about 0.43 µM; inactive = the rest
Labels: yes = active, no = inactive

molecule	cat
O=C1/C=C/[C@@H](O)[C@@H]2C[C@@H](O)C[C@H]2/C=C/CCC[C@H](CCO)O1	yes
COc1cc(OC)c(/C=C/C(=O)c2c(OC)cc(OC)cc2OC)c(OC)c1	no
NS(=O)(=O)c1ccc(-n2nc3c(c2-c2cccs2)Cc2ccccc2-3)cc1	no
C=CCc1c(O)c(C(=O)/C=C/c2ccc(Cl)cc2)c(OC)c2ccoc12	no
CCC(=O)NC1=C(Cl)C(=O)C(NC(=O)CC)=C(Cl)C1=O	no
CC1(C)CCC2=C(O1)c1ccccc1C(=Nc1ccc([N+](=O)[O-])cc1)C2=O	no
NC1CC(=O)c2c(-c3cccs3)sc(-c3cccs3)c21 (stereo not drawn)	no
CCC[CH2][Sn]1([CH2]CCC)[O]C(=O)c2cccc([N+](=O)[O-])c2C(=O)[O]1	no

----------
Listing of entries alongside the reported TGI.
# Tested on: NCI/ADR-RES ovarian
# measurement_notes: NCI tumour cell line growth inhibition, 48 h
quantity_kind: TGI

compound	val
CCOC(=O)c1ccc2nc3n(c2c1)C(c1c(F)cccc1F)SC3 (stereo unspecified)	> 100 µM
O=S(=O)(O)c1ccc(O)c(N=Nc2c(O)ccc3ccccc23)c1	> 100 µM
O=[N+]([O-])c1ccc2c(c1)C(N1CCN(CCO)CC1)Cc1ccc(F)cc1S2 (stereo unspecified)	25.4 µM
CCCN=C1NC(C)=CSC(Nc2ccccc2)=C1C#N	> 100 µM
Nc1ccc(C#Cc2ccccc2C#CCCCCO)cc1	40.4 µM
CCCCCCCCN(CCCCCCCC)CC(O)c1cc(-c2ccccc2)nc2ccc(OC)cc12 (stereo unspecified)	> 100 µM
CCN(CC)/N=C\c1c2ccccc2cc2ccccc12	> 100 µM
CN(C)C(=O)N1N[C@H](c2ccccc2)[C@@H]1c1ccccc1	> 100 µM
CSc1nnnc2ccccc12	> 100 µM
COC(=O)/C=C1\C(CO[Si](C)(C)C(C)(C)C)OC(n2cc(C)c(=O)n(C)c2=O)C1O[Si](C)(C)C(C)(C)C (stereo unspecified)	> 100 µM
[N-]=[N+]=Nc1cc(=O)[nH]c2ccccc12	> 100 µM
